# targetUnderTest: human recombinant 6His-Nterm SHP2 full-length (Thr2-Arg593) (Homo sapiens)
# Construct: 6His-Nterm SHP2 full-length (Thr2-Arg593, R&D system); 6His (N)
# Sequence (Q06124 2-593): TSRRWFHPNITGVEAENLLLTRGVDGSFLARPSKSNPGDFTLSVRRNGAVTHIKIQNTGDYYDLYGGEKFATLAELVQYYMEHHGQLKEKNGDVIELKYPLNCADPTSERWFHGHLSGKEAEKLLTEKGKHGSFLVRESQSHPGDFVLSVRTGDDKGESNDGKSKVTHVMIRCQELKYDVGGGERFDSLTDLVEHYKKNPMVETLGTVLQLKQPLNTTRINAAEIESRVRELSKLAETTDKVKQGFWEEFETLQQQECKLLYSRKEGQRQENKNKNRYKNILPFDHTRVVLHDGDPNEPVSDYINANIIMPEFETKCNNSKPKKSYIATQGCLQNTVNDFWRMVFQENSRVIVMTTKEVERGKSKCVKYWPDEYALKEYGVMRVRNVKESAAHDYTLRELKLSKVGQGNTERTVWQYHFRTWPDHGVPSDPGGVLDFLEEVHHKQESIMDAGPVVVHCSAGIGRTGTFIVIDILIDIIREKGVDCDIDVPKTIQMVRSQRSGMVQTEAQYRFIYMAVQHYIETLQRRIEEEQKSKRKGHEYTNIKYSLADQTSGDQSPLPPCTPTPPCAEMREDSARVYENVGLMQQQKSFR
# procedureSummary: SHP2 Phosphatase Assay (DiFMUP fluorescence)
# cond: SHP2 0.2 nM pre-incubated with 100 nM bi-phosphorylated activating peptide; compound 1000-0.05 nM, 30 min pre-incubation; DiFMUP 20 µM, 45 min, room temperature; 10-concentration dose-response
propertyName: IC50 (nM)

(1) Cc1nccc(-c2c(C)nc(N3CCC4(CC3)Cc3ccccc3[C@H]4N)c3ccnn23)c1F [Compound 151]
(2) Cc1nc(N2CCC3(CC2)Cc2ncccc2[C@H]3N)c2ccnn2c1-c1ccc2c(c1)OCC2 [Compound 162]
Please indicate which entry, 1 or 2 , has the lower recorded IC50 value. Reply briefly: the label of your chosen item.
2

(A) COc1ccc2c(c1)CC1(CCN(c3nc(C)c(-c4ccnc(C)c4Cl)n4nccc34)CC1)[C@@H]2N [Compound 6]
(B) Cc1nc(N2CCC3(CC2)Cc2ncccc2[C@H]3N)c2ccnn2c1-c1cncc(Cl)c1 [Compound 199]
Short answer wanted: higher IC50, A or B ? Reply briefly: the label of your chosen item.
B
(B: 14 nM, A: 8 nM)
